# Tested on: NCI-H460 lung
# measurement notes: NCI tumour cell line growth inhibition, 48 h; in the data active = GI50 below about 0.43 µM; inactive = the rest
Outcomes: t (active), f (inactive)

molecule="CCCCCC(=O)O[C@]1(C(C)=O)CCC2C3CCC4=CC(=O)CC[C@]4(C)C3CC[C@@]21C (stereo not given in full)" group=f
molecule=COc1cc(-c2nccc3[nH]c(-c4ccc5cc[nH]c5c4)nc23)cc(OC)c1OC group=t
molecule=C=C(CN1CCc2[nH]c3ccc(F)cc3c2C1)c1ccc(C(=O)Nc2ccccc2N)cc1 group=f
molecule=O=C(COc1ccc(/C=C2\Oc3ccccc3C2=O)cc1)Nc1nc2ccccc2s1 group=f
molecule=C=CCN(CC=C)C(=O)c1cc(C)nc2c1c(=O)n(-c1ccccc1)c(=O)n2CCCN1CCN(c2ccccc2OC)CC1 group=f

###

This section presents molecules with their documented TGI values.
# Test system: 786-0 renal
# measurement notes: NCI tumour cell line growth inhibition, 48 h
measurement type: TGI

molecule="N#CC1CC(c2ccccc2)Nc2cc(Cl)ccc2N1 (centres undefined)" recorded_measurement="> 100 µM"
molecule="CSCCC(C(=O)O)N(C)C (centres undefined)" recorded_measurement="> 100 µM"
molecule=CCCCCCCCCCCCCCNC(=O)Nc1ccc(Cl)c(Cl)c1 recorded_measurement="> 23.4 µM"
molecule=COC(CN(C)C(=S)Nc1cccc2ccccc12)OC recorded_measurement="> 10 µM"
molecule="Cc1cnc(C(=O)NNc2nc3sc4c(c3c(=O)[nH]2)C(C)CCC4)cn1 (centres undefined)" recorded_measurement="13.5 µM"
molecule=Cc1c(C)c(S(=O)(=O)N(CCCCN)OCCCN)c(C)c2c1OC(C)(C)CC2 recorded_measurement="31.9 µM"
molecule=CNCc1ccc(-c2cc(-c3nc(-c4ccc(S(=O)(=O)C(C)C)cc4)cnc3N)on2)cc1 recorded_measurement="11.3 µM"
molecule=S=C1SCN(Cc2ccccc2)CN1Cc1ccco1 recorded_measurement="14.4 µM"
molecule=ClCCOCCn1cnc2c(Cl)nc(Cl)nc21 recorded_measurement="44 µM"
molecule=Cc1ccc(N=N/C(=N/NC(=O)c2ccccc2)c2ccc(N(CCC#N)CCC#N)cc2C)cc1 recorded_measurement="> 100 µM"
molecule=COC(=O)[C@@H]1[C@@H]2NC(=S)N[C@@]1(C)Oc1ccccc12 recorded_measurement="> 100 µM"
molecule=Cc1ccc(S[C@@](C=O)(NC(=O)OCc2ccccc2)C(F)(F)F)cc1 recorded_measurement="47.5 µM"
molecule="O=C1CC(O)c2cscc21 (centres undefined)" recorded_measurement="> 100 µM"
molecule=COC(=O)/C=C(\C(=O)OC)c1cc(C)c2cc(C(C)C)ccc(C)c1-2 recorded_measurement="> 100 µM"
molecule=CCOC(=O)c1c2c(n(-c3ccc(C)cc3)c1C)-c1ccccc1C(=O)C2(C(=O)OCC)C(=O)OCC recorded_measurement="> 100 µM"
molecule=COc1ccccc1Oc1nccc(-c2c(-c3ccc(F)cc3)ncn2C2CCNCC2)n1 recorded_measurement="> 25 µM"
molecule="CC12OC(=O)C(C#N)C1(C)C1C(=O)CCCC12 (centres undefined)" recorded_measurement="> 100 µM"
molecule=COc1ccc(OC)c2sc(N3C(=O)/C(=C/c4cccc(Oc5ccccc5)c4)N=C3c3ccccc3)nc12 recorded_measurement="> 100 µM"
molecule=C=CCON(C(=O)OC(C)(C)C)C(C)(C)C recorded_measurement="> 100 µM"
molecule="CC(=O)NC1C(O[C@H]2C[C@H]3[C@@H]4CC=C5C[C@@H](O)CC[C@]5(C)[C@H]4CC[C@]3(C)[C@H]2[C@H](C)C(=O)CCC(C)C)OCC(O)C1O (some centres undefined)" recorded_measurement="2.21 µM"
molecule="COC12C(COC(=O)NCCO)C3=C(C(=O)C(C)=C(N)C3=O)N1CC1NC12 (centres undefined)" recorded_measurement="> 264 µM"
molecule=COC1(OC)CCc2c(sc3ncnc(Nc4cccc(Br)c4)c23)C1 recorded_measurement="> 100 µM"
molecule=CCN(CC)CCNc1ccc2ncn3c4ccc(O)cc4c(=O)c1c23 recorded_measurement="14.1 µM"
molecule="C1CSCCSCCCS[C@@H]2CCCCC2SC1 (some centres undefined)" recorded_measurement="> 100 µM"

###

This section presents compounds with their documented TGI values.
# Test system: HCC-2998 colon
# measurement notes: NCI tumour cell line growth inhibition, 48 h
measurement type: TGI (µM)

compound=NNc1nnc(CCCCCCCCc2nnc(NN)n2N)n1N comparative_sign=> recorded_measurement=100
compound=Cc1cc(C)c(-c2no/c(=N\S(=O)(=O)c3ccc(Cl)cc3)o2)c(C)c1 comparative_sign=> recorded_measurement=100
compound="[B]C(=O)NC(CC(C)C)C(=O)NCC(=O)NC1c2ccsc2C(=O)C1O (stereo unspecified) (tested in a mixture with another compound)" comparative_sign=> recorded_measurement=100
compound=C=CCC(CCC(C)=O)(C(=O)OCC)C(=O)OCC comparative_sign=> recorded_measurement=100
compound="CCCC(=O)CC(C)C(=O)C(=O)NC12CC3CC(CC(C3)C1)C2 (stereo unspecified)" comparative_sign=> recorded_measurement=100
compound=Cc1noc(NC(=O)Nc2ccccc2F)c1C#N comparative_sign== recorded_measurement=3.8
compound="COC12C(COC(=O)NCCO)C3=C(C(=O)C(C)=C(N)C3=O)N1CC1NC12 (stereo unspecified)" comparative_sign== recorded_measurement=99.3
compound=Cc1cccc2sc(NC(=O)NS(=O)(=O)n3cnc4ccccc43)nc12 comparative_sign== recorded_measurement=30.3
compound=Clc1ccc(C=Nc2ccc(Oc3ccc(Cl)cc3)c(Cl)c2)cc1 comparative_sign== recorded_measurement=45.6
compound="c1ccc(COC[C@H]2O[C@@H](c3ccccc3)C[C@@H](OCc3ccccc3)C2OCc2ccccc2)cc1 (stereo partly specified)" comparative_sign=> recorded_measurement=10
compound=Cc1cc2nc3c(C#N)c(-c4ccccc4)/c(=C\Nc4ccc(F)cc4)c(=O)n3c2cc1C comparative_sign=> recorded_measurement=100
compound=CN1CCN(c2c(F)cc(NC3=C(Cl)C(=O)c4ncccc4C3=O)cc2F)CC1 comparative_sign== recorded_measurement=26.1
compound=COc1ccc(-c2nc3ccc(Cc4ccc5nc(-c6ccc(OC)cc6)[nH]c5c4)cc3[nH]2)cc1 comparative_sign== recorded_measurement=0.188
compound=COc1ccc2c(C(=O)O)cc3ccccc3c2c1OC comparative_sign== recorded_measurement=46.8
compound=O=C(c1ccccc1)C1(Br)S(=O)(=O)OCCOS1(=O)=O comparative_sign=> recorded_measurement=100
compound="CC(SC(=S)N1CCOCC1)C(=O)Nc1nnc(-c2ccc(Cl)cc2)o1 (stereo unspecified)" comparative_sign=> recorded_measurement=100
compound=Cn1c(=O)c2nc3sc4c(n3c2n(C)c1=O)C(=O)c1ccccc1C4=O comparative_sign=> recorded_measurement=100
compound=Oc1c(N2CCCCC2)cc(-c2cc(N3CCCCC3)c(O)c3ccccc23)c2ccccc12 comparative_sign=> recorded_measurement=100
compound=C=CCN(CC=C)C(=O)c1cc(C)nc2c1c(=O)n(-c1ccccc1)c(=O)n2CCCN1CCN(c2ccccc2OC)CC1 comparative_sign=> recorded_measurement=50
compound=O=C(CCc1cc(O)cc(O)c1)NCCc1cc(O)cc(OCc2ccccc2)c1 comparative_sign== recorded_measurement=39.1
compound=ClCCOCCn1cnc2c(Cl)nc(Cl)nc21 comparative_sign== recorded_measurement=2.88

###

# Test system: OVCAR-5 ovarian
# measurement notes: NCI tumour cell line growth inhibition, 48 h
measurement type: TGI

molecule=N#Cc1c(NC(=O)C(F)(F)F)sc2c3c(=O)c4ccccc4c(=O)c=3oc3ccccc3c12 recorded_measurement="63.3 µM"
molecule=CCOC(=O)c1ccc(N=Nc2ccc(N(CCC#N)CCC#N)cc2C)cc1 recorded_measurement="> 100 µM"
molecule=OCCCCC#Cc1ccccc1C#Cc1cccc(C(F)(F)F)c1 recorded_measurement="37.2 µM"
molecule=C[C@H](C(=O)O)C(=O)NC(=O)N(Cc1ccccc1)N=O recorded_measurement="> 100 µM"
molecule=ClCCOCCn1cnc2c(Cl)nc(Cl)nc21 recorded_measurement="28.9 µM"
molecule=O=C1N[C@@H]2CCCC[C@@H]2C12CCCCC2 recorded_measurement="> 100 µM"
molecule=Cc1nc2sc3cccc(Cl)c3n2c(=O)c1N=Nc1ccc(Cl)cc1 recorded_measurement="> 100 µM"
molecule=CC[C@H](C)[C@H](NC(=O)[C@H]1CCCCN1C)C(=O)N(C)[C@H](C[C@@H](OC(C)=O)c1nc(C(=O)NC23CC(C(=O)OC)(C2)C3)cs1)C(C)C recorded_measurement="> 32.5 µM"
molecule="CC(=O)Nc1ccc(C2CC(c3ccc([N+](=O)[O-])cc3)=Nc3ccccc3S2=O)cc1 (configuration not stated)" recorded_measurement="> 100 µM"
molecule=O=C1c2ccccc2C(=O)c2c(NC3CCCCC3)ccc(Nc3ccc(S(=O)(=O)O)cc3)c21 recorded_measurement="> 100 µM"
molecule="COC(=O)c1cc(S(=O)(=O)NC2=NCC(C)NN2)c(S)cc1Cl (configuration not stated)" recorded_measurement="> 100 µM"
molecule=N#Cc1ccccc1OCCOc1ccccc1C#N recorded_measurement="> 100 µM"
molecule=Cc1ccc(S[C@@](C=O)(NC(=O)OCc2ccccc2)C(F)(F)F)cc1 recorded_measurement="54.8 µM"
molecule=Cc1ccc(N=N/C(=N/NC(=O)c2ccccc2)c2ccc(N(CCC#N)CCC#N)cc2C)cc1 recorded_measurement="> 100 µM"
molecule=CN1C(=O)CC(=O)N1/C(=C/c1ccccc1)c1ccccc1 recorded_measurement="> 100 µM"
molecule=COC1(OC)c2occc2C(=N)c2ccc(=O)oc21 recorded_measurement="> 100 µM"
molecule=Cc1cc(O)c(/C=N/C(N)=S)c(=O)o1 recorded_measurement="> 100 µM"
molecule=O=C(c1ccccc1)C1(Br)S(=O)(=O)OCCOS1(=O)=O recorded_measurement="> 100 µM"
molecule=Cc1cccc(Cn2cc(CO)c3cnccc32)c1 recorded_measurement="> 100 µM"
molecule=COc1ccc(/C=C2\C(=O)N(NC(C)=O)c3ccccc32)cc1 recorded_measurement="> 100 µM"
molecule=N#Cc1sc2nc3ccccc3n2c1N recorded_measurement="> 100 µM"
molecule="CCCCCC(=O)O[C@]1(C(C)=O)CCC2C3CCC4=CC(=O)CC[C@]4(C)C3CC[C@@]21C (some centres not stated)" recorded_measurement="22.3 µM"
